# experimental details: Sedimentation equilibrium analytical ultracentrifugation of aPP variants, monomer-n-mer fit (self-association)
# Format: physicochemical
# measurement conditions: 30 μM peptide, 25° C.
No end group written: not given here.
property: % monomer at 30 μM (%)
Return type: number; implicit unit %.

Consider the worked cases shown below.
substance	% monomer at 30 μM (%)
GPSQPTAPGDDAPVEDLIRFYDNLRQYLNVVTRHRY [aPP^Y7AQ25R]	78
GPSQPTYPGDDAPVEDLIRFADNLQQYLNVVTRHRY [aPP^Y21A]	14
GPSQPTAPGDDAVPEDLIRFYDNLQQYLNVVTRHRY [aPP^Y7AP13VV14P]	90

Query: Looking for the measured % monomer at 30 μM of avian pancreatic polypeptide (GPSQPTYPGDDAPVEDLIRFYDNLQQYLNVVTRHRY; ends and bridges not checked) [aPP, purchased from American Peptide Company, reference compound] , can you help?
Result: 23

Query: Requested field: % monomer at 30 μM. Item: aPP^Y7AT6E: SEQ ID NO: 8, CPSQPEAPGDDAPVEDLIRFYDNLQQYLNVVTRHRY (Table 1 prints GPSQPE...)
Result: 79

====

Known Kd (self-association, tetramer) of a selection of substances
# experimental details: Sedimentation equilibrium analytical ultracentrifugation of aPP variants, monomer-n-mer fit (self-association)
# Format: physicochemical
# measurement conditions: n = 4, 25° C.; calculated from ln KA

substance	obs value
GPSQPTAPGDDAPVEDLIRFYDNLQQYLNVVTRHRY [aPP^Y7A]	3.9×10^−12 M^3
GPSQPTAPGDDAPVEDLIRFYDNLRQYLNVVTRHRY [aPP^Y7AQ25R]	1.8 × 10^−13 M^3
GPSQPTAPGDDAVPEDLIRFYDNLQQYLNVVTRHRY [aPP^Y7AP13VV14P]	7.5 × 10^−13 M^3
GPSQPTYPGDDAPVEDLIRAYDNLQQYLNVVTRHRY [aPP^F20A]	7.6×10^−11 M^3

Next:
Query: Fill in the blank: the reported Kd (self-association, tetramer) of aPP^Y7AT6E: SEQ ID NO: 8, CPSQPEAPGDDAPVEDLIRFYDNLQQYLNVVTRHRY (Table 1 prints GPSQPE...) is ____.
Result: 2.0 × 10^−13 M^3
